- System: MCF7
- assay-protocol: Cell cycle arrest in human MCF7 cells assessed as accumulation at G0 phase at 4 uM after 24 hrs by propidium iodide staining-based flow cytometric analysis (reference value: 3.36%)
- Assay type: functional
Field: label. Allowed values: fulfilled (Activity < 6%) or not fulfilled (Activity >= 6%).

Task item: A record lists COc1cc2c(cc1OCCCCCCN1CCN(C(=O)c3nc(-c4ccc(C(F)(F)F)cc4)n4ccccc34)CC1)N=C[C@@H]1CCCN1C2=O . Is its Activity below 6%?
Reply: not fulfilled

Task item: A record lists COc1ccc(-c2nc(C(=O)N3CCN(CCCCOc4cc5c(cc4OC)C(=O)N4CCC[C@H]4C=N5)CC3)c3ccccn23)cc1 . Is its Activity below 6%?
Reply: not fulfilled

Task item: A record lists COc1cc2c(cc1OCCCCN1CCN(C(=O)c3nc(-c4ccccc4)n4ccccc34)CC1)N=C[C@@H]1CCCN1C2=O . Is its Activity below 6%?
Reply: fulfilled

Task item: A record lists COc1ccc(-c2nc(C(=O)N3CCN(CCCCCCOc4cc5c(cc4OC)C(=O)N4CCC[C@H]4C=N5)CC3)c3ccccn23)cc1 . Is its Activity below 6%?
Reply: not fulfilled

Task item: A record lists COc1cc2c(cc1OCCCCCCN1CCN(C(=O)c3nc(-c4ccccc4)n4ccccc34)CC1)N=C[C@@H]1CCCN1C2=O . Is its Activity below 6%?
Reply: not fulfilled

Task item: A record lists COc1cc2c(cc1OCCCCCN1CCN(C(=O)c3nc(-c4ccccc4)n4ccccc34)CC1)N=C[C@@H]1CCCN1C2=O . Is its Activity below 6%?
Reply: not fulfilled

Task item: A record lists COc1cc2c(cc1OCCCN1CCN(C(=O)c3nc(-c4ccc(C(F)(F)F)cc4)n4ccccc34)CC1)N=C[C@@H]1CCCN1C2=O . Is its Activity below 6%?
Reply: not fulfilled

Task item: A record lists COc1cc2c(cc1O)N=C[C@@H]1CCCN1C2=O . Is its Activity below 6%?
Reply: fulfilled

Task item: A record lists COc1cc2c(cc1OCCCCN1CCN(C(=O)c3nc(-c4ccc(C(F)(F)F)cc4)n4ccccc34)CC1)N=C[C@@H]1CCCN1C2=O . Is its Activity below 6%?
Reply: not fulfilled

Task item: A record lists COc1cc2c(cc1OCCCCCN1CCN(C(=O)c3nc(-c4ccc(C(F)(F)F)cc4)n4ccccc34)CC1)N=C[C@@H]1CCCN1C2=O . Is its Activity below 6%?
Reply: not fulfilled

Task item: A record lists COc1cc2c(cc1OCCCN1CCN(C(=O)c3nc(-c4ccccc4)n4ccccc34)CC1)N=C[C@@H]1CCCN1C2=O . Is its Activity below 6%?
Reply: fulfilled

###

- System: DNA
- assay-protocol: Binding affinity to calf thymus DNA assessed as change in melting temperature at 1:5 drug/DNA ratio at 37 degC after 18 hrs by spectrophotometry
- Assay type: nucleic-acid assay
- protocol-conditions: Bos taurus
endpoint: ΔTm
Field: value (include unit after the number)

Task item: Consider the molecule shown here: COc1ccc(-c2nc(C(=O)N3CCN(CCCCCOc4cc5c(cc4OC)C(=O)N4CCC[C@H]4C=N5)CC3)c3ccccn23)cc1 What is its recorded ΔTm?
Reply: 9.9 °C

Task item: Consider the molecule shown here: COc1cc2c(cc1OCCCCN1CCN(C(=O)c3nc(-c4ccc(C(F)(F)F)cc4)n4ccccc34)CC1)N=C[C@@H]1CCCN1C2=O What is its recorded ΔTm?
Reply: 10 °C

Task item: Consider the molecule shown here: O=C(O)c1nc(-c2ccc(C(F)(F)F)cc2)n2ccccc12 What is its recorded ΔTm?
Reply: 0.3 °C

Task item: Consider the molecule shown here: COc1ccc(-c2nc(C(=O)N3CCN(CCCCCCOc4cc5c(cc4OC)C(=O)N4CCC[C@H]4C=N5)CC3)c3ccccn23)cc1 What is its recorded ΔTm?
Reply: 8.9 °C

Task item: Consider the molecule shown here: COc1cc2c(cc1OCCCCCCN1CCN(C(=O)c3nc(-c4ccc(C(F)(F)F)cc4)n4ccccc34)CC1)N=C[C@@H]1CCCN1C2=O What is its recorded ΔTm?
Reply: 8.7 °C

Task item: Consider the molecule shown here: COc1ccc(-c2nc(C(=O)N3CCN(CCCOc4cc5c(cc4OC)C(=O)N4CCC[C@H]4C=N5)CC3)c3ccccn23)cc1 What is its recorded ΔTm?
Reply: 8.8 °C

Task item: Consider the molecule shown here: COc1cc2c(cc1OCCCCCN1CCN(C(=O)c3nc(-c4ccc(C(F)(F)F)cc4)n4ccccc34)CC1)N=C[C@@H]1CCCN1C2=O What is its recorded ΔTm?
Reply: 10.2 °C

Task item: Consider the molecule shown here: COc1cc2c(cc1OCCCN1CCN(C(=O)c3nc(-c4ccc(C(F)(F)F)cc4)n4ccccc34)CC1)N=C[C@@H]1CCCN1C2=O What is its recorded ΔTm?
Reply: 8.8 °C

Task item: Consider the molecule shown here: COc1cc2c(cc1O)N=C[C@@H]1CCCN1C2=O What is its recorded ΔTm?
Reply: 0.7 °C

Task item: Consider the molecule shown here: COc1cc2c(cc1OCCCCCN1CCN(C(=O)c3nc(-c4ccccc4)n4ccccc34)CC1)N=C[C@@H]1CCCN1C2=O What is its recorded ΔTm?
Reply: 9 °C

Task item: Consider the molecule shown here: COc1cc2c(cc1OCCCCN1CCN(C(=O)c3nc(-c4ccccc4)n4ccccc34)CC1)N=C[C@@H]1CCCN1C2=O What is its recorded ΔTm?
Reply: 8.9 °C
